Target: Fructose-bisphosphate aldolase (Giardia intestinalis (strain ATCC 50803 / WB clone C6)) (UniProt A8B2U2)
Sequence (A8B2U2 whole entry, looked up): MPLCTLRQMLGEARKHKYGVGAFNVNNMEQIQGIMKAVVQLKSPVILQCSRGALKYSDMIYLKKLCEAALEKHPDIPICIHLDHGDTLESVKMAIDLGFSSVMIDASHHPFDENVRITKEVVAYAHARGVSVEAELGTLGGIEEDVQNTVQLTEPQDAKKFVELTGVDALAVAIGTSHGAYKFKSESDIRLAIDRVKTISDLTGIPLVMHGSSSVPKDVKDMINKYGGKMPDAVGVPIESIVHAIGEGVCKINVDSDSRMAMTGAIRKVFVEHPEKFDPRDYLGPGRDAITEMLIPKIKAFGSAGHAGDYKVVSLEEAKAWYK
Assay: qHTS Assay for Inhibitors of Fructose-1,6-bisphosphate Aldolase from Giardia Lamblia; note: nearly all actives have a fitted effect of over 55% in size
Conditions: purified Giardia FBPA; series mostly up to 59.6 µM
In all, about 290,000 compounds went through this assay and about 2,100 (0.72%) were called active. Roughly 4% stayed inconclusive and do not appear here. Calls come from the whole dose curve; as a rule, active = well fitted inhibition curve with a large enough effect; inconclusive = small, poorly fitted or top-dose-only effect, or effect the other way; inactive = flat fitted curve, though single readings scatter. The sample as a whole holds a higher share of actives than the screen did.
Hello, when you answer, please use one of the following outcomes: active, inactive

Worked examples follow.
[
  {
    "smilesCode": "CCc1cccc(NC(=S)N(CCN(C)C)C2CCN(C(C)C)CC2)c1",
    "group": "inactive"
  },
  {
    "smilesCode": "CCc1nc(NCCO)c(C#N)c2c1CCCC2",
    "group": "inactive"
  },
  {
    "smilesCode": "CCN1CCc2c(C#N)c(NCc3ccccc3)nc(NCCO)c2C1",
    "group": "active"
  },
  {
    "smilesCode": "CCCCc1nc(NCc2ccccc2)c(C#N)c2c1CCCC2",
    "group": "inactive"
  },
  {
    "smilesCode": "Cc1cccc(C(=O)Nc2ccc(Oc3cnccn3)cc2)c1",
    "group": "inactive"
  }
]

Can you look up the reported call for `COCCN(CCOC)C(=S)Nc1ccccc1Cl` for me?
inactive
